test system: PPARg:RXRa DBDmut IVT, anti-RXR (DBD mutation: RXRa K156A/R161A, NR concentration 270 nM, RXRa partner concentration 90 nM); experiment: PBM binding z-score (relative to random genomic background probes); higher = stronger binding; sequences stand for … in GC…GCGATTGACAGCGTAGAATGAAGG
In this section we review reported PBM binding z-score values for a set of sequences.
Note: the reply should be a number with no unit written.

Solved entries (count: 5):
- TCTTGTAGATTAAGCAGGTTAAGAAAGCCTGAGT: 1.64
- TAGCCTAGGTCAGGGGCCAGTATACCACGCGAAC: 0.374
- CCTACTGGGCCATCAGGTCATAGATATCAACGTT: 4.5
- AGAACGAGGGCACGCTGAGTTTATAGCAGAGTAG: 4.28
- TCTGCAAGGTCAACGATGGTCAGCTAATCTGCTA: 3.02

Enquiry: # input sequence: CCTGCTAGGTCAATGGTGAGCTAAAGCAGCTCGC ; wanted: its PBM binding z-score
Return: 4.2

###

system: PPARa:RXRa (NR concentration 270 nM, RXRa partner concentration 90 nM); experiment: PBM binding z-score (relative to random genomic background probes); higher = stronger binding; sequences stand for … in GC…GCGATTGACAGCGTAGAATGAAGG
# cutoff 4 applies to PBM binding z-score; >= gives true (1), < gives false (0)

* CCTAGCAGGCCAATCTGGGTCGCTCAAGGCTTGA | false (0)
* CCTCCTGGGCCACGAAAGGTCATTGATTCAGTGA | true (1)
* TCTCGGAGTACACGAAAGGTCAGAGCTCGACATC | false (0)

Enquiry: Please check the record CCTCGGACGACAACAGGAGGTCAGAGCTGCCAGA and state if its PBM binding z-score is at or above 4.
Return: false (0)

###

test system: RARa:RXR (NR concentration 270 nM, RXRa partner concentration 90 nM); experiment: PBM binding z-score (relative to random genomic background probes); higher = stronger binding; sequences stand for … in GC…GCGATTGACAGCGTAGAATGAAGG
Test Readout: PBM binding z-score
Give the figure by itself; no unit, no explanation.

- ATCTCTAGTTAAAGTTCAGTGAAAGATCGATAGA: 1.41
- CGTCCAAGGTCAAAGGTTAGTGAAGAGATGACGG: 7.8
- TCTCCGAGGACACGAAGGTCAGAGCTTTCCAGAG: 2.06
- GCATATAGGCAATACAAGGTGAAAGTCCGATTGT: 0.876
- GCGACTGGGGCATCAGCAGGTTAACATAACTTAA: 0.486
- ATCGAAAGGTCGAGGTCAGTATAGAGAAAGGGAA: 4.81
- ACTTACGGGTCAACGAGGTTATAGGACGCGTATA: 5
- GCAGACAGGTGAAAGGCAGGTAACTCAGGGTGGC: 0.332
- CGTCCAAGGTCAGCAGGTCAGTGTAAGCGACGTG: 5.09
- TAGCCTTGGTCATTGGGCCAGTATAGTACGCATC: -0.324

Enquiry: Request: PBM binding z-score, test system RARa:RXR (NR concentration 270 nM, RXRa partner concentration 90 nM), entry CTACCAAGCTGAACAAGGTCGTTGATTACTATTC
Return: 1.31

Enquiry: Short answer please: PBM binding z-score, RARa:RXR (NR concentration 270 nM, RXRa partner concentration 90 nM), entry TCCAGCAGGCCAGAGGGTCACTCAAGAGGTACGG
Return: 2.3

Enquiry: Value wanted: PBM binding z-score (RARa:RXR (NR concentration 270 nM, RXRa partner concentration 90 nM)) of entry CCAGACAGGTGAGAAGGTAACTAAGCCTCGATTA
Return: -0.102

Enquiry: Lab note: need PBM binding z-score for TCAGACAGGTGAAGGTAACTCCGGTACGCAGTCG on RARa:RXR (NR concentration 270 nM, RXRa partner concentration 90 nM), anyone have it?
Return: 0.651

Enquiry: Look up PBM binding z-score with RARa:RXR (NR concentration 270 nM, RXRa partner concentration 90 nM) for this sequence: TCTGCTAGGTCAAGGATGGTCAGCTAATCTGCTA
Return: 2.26

Enquiry: Form field - read-out: PBM binding z-score; system: RARa:RXR (NR concentration 270 nM, RXRa partner concentration 90 nM); submitted item: GCTATTAGTTGGAAGGGCAACCGAATGATTCTCG
Return: -0.059

Enquiry: Lab request: please report PBM binding z-score under test system RARa:RXR (NR concentration 270 nM, RXRa partner concentration 90 nM) for GCGACCGGGGCAAAGCAGGTTACCATAAGGTTGG
Return: 1.31

Enquiry: What value of PBM binding z-score on RARa:RXR (NR concentration 270 nM, RXRa partner concentration 90 nM) does AGAATGAGGTTATTATGATCAGGGAATTGCGGTC have?
Return: 1.34

Enquiry: Query the reported PBM binding z-score for RARa:RXR (NR concentration 270 nM, RXRa partner concentration 90 nM); item: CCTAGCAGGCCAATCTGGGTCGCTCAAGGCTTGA
Return: 1.45

###

system: PPARg:RXRa 30nM:10nM, anti-RXR (NR concentration 30 nM, RXRa partner concentration 10 nM); assay: PBM binding z-score (relative to random genomic background probes); higher = stronger binding; sequences stand for … in GC…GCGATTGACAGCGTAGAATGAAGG
Recorded PBM binding z-score, one value per entry.
Please give the numeric answer without any surrounding text.

Answered cases to consult:
• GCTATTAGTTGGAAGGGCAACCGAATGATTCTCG = -0.127
• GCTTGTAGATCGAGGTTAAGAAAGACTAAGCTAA = -0.204
• GCAGACAGGTGAAACGCAGGAAACTCAGGGTGGC = -0.59

Next up:
Enquiry: What PBM binding z-score appears in the records for this sequence with PPARg:RXRa 30nM:10nM, anti-RXR (NR concentration 30 nM, RXRa partner concentration 10 nM)? CCGACTGGGGCTGAAAGGTTACCATACCATCCGG
Return: 0.223

###

test system: THRa:RXRa (NR concentration 90 nM, RXRa partner concentration 90 nM); assay: PBM binding z-score (relative to random genomic background probes); higher = stronger binding; sequences stand for … in GC…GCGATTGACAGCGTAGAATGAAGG
Hi, to clarify the labels: Y covers PBM binding z-score from 2 upward, N covers anything below 2.

Some solved cases for reference:
• ACTTATGGGTCAACGAGGTTATAGCACGCGTATA = Y
• TAGCCTAGGTCAGAACGGGCCAGTATACGCTATA = Y
• TCATATAGGTAAAAGATGAAAGTCGGTGTGGTAA = N
• GCATATAGGTAATACAAGGTGAAATTCCGATTGT = Y
• GCATATAGGTAATACAAGGTGATAGTCCGATTGT = Y

Switching to the query record.
Enquiry: Is PBM binding z-score for CCGACTGGGGCAGAAAGGTTACCATACCATCCGG at or above 2?
Return: N

###

Readings of PBM binding z-score for the listed sequences
system: THRa:RXRa (NR concentration 90 nM, RXRa partner concentration 90 nM); test: PBM binding z-score (relative to random genomic background probes); higher = stronger binding; sequences stand for … in GC…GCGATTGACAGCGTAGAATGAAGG
Please reply with the number alone, leaving off any unit.

Enquiry: Could you share what PBM binding z-score was measured for ACTATTAGTTGACTTAGGGCAACCCATACGACGC , tested on THRa:RXRa (NR concentration 90 nM, RXRa partner concentration 90 nM)?
Return: 1.55

Enquiry: Param readout = PBM binding z-score; param system = THRa:RXRa (NR concentration 90 nM, RXRa partner concentration 90 nM); param query = CCTAGTTGGTCAGGCGGTCACACACCGGATATGA ; response: value
Return: 0.232

Enquiry: Param readout= PBM binding z-score; system= THRa:RXRa (NR concentration 90 nM, RXRa partner concentration 90 nM); entry= CAAACTAGGTCTAAGGTCAAAGTCGAGCCAACCA ; returns value.
Return: 4.1

Enquiry: Please state recorded PBM binding z-score (tested on THRa:RXRa (NR concentration 90 nM, RXRa partner concentration 90 nM)) of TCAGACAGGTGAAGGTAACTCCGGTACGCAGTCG
Return: 1.28

###

test system: PXR homodimer (NR concentration 270 nM); assay: PBM binding z-score (relative to random genomic background probes); higher = stronger binding; sequences stand for … in GC…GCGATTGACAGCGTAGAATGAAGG
Categories are defined by ranges of PBM binding z-score, namely lo = under 0.07, mid = from 0.07 up to 1, hi = 1 and over

- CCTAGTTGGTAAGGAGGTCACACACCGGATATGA: hi
- TAGCCTAGGTAATTCAGGGGCCAGTATAGAAAGC: lo
- TTACCAAGGTGAATGTCGTTGATCCCTCTGTAGA: lo

Enquiry: Consider TATACCGGGTCAAAGGCCAGAGTACGAATGTCGA . To which PBM binding z-score class does it belong?
Return: mid

Enquiry: Category of TCATATAAGTAAACAGGTGAAAGTCCGTAAGTTA , please.
Return: mid

Enquiry: Place this sequence in its band: GCATATAGGTAATACAAGGTGAAAGGCCGATTGT
Return: mid

Enquiry: Determine which band this sequence sits in: ACTTACGGGTCAACGAGGTTATAGTACGCGTATA
Return: hi

Enquiry: Hey, which category is CCAACTGGGGCAAGGTTACCATAACGCACAGCCA in, do you know?
Return: lo

Attribution: the supplement of paper PMC6555819
